testDescription: qHTS Assay for Rab9 Promoter Activators: Hit Validation Using Renilla Luciferase Read-Out for Rab9
measurementParameters: Huh7 Rab9 promoter Renilla luciferase reporter, 24 h; series mostly up to 76.9 µM
Records with an inconclusive call do not appear. Active and inactive are the calls of the source. Calls come from the whole dose curve; as a rule, active = well fitted activation curve with a large enough effect; inconclusive = small, poorly fitted or top-dose-only effect; inactive = no such curve, though single readings can be large or run the other way.
Give one outcome, nothing more. List: active, inactive

Exercise: For COc1ccccc1N(C(=O)c1snc(C(N)=O)c1N)C(C(=O)NC1CCCCC1)c1cccc(OC)c1OC (stereo unspecified) , what call appears in the results of this test?
Solution: active

Exercise: For CC1=C(C(=O)OC2CCCC(C)C2)C(c2ccccc2)NC(=O)N1 (stereo unspecified) , what call appears in the results of this test?
Solution: inactive

Exercise: For Nc1nc(SCCO)[nH]c(=O)c1NC(=O)c1ccco1 , what call appears in the results of this test?
Solution: inactive

Exercise: For O=C(CN1C(=O)COc2ccc(Cl)cc21)NCC1CCCO1 (stereo unspecified) , what call appears in the results of this test?
Solution: inactive

Exercise: For CNC(=O)Cn1nc(C)c2ccccc2c1=O , what call appears in the results of this test?
Solution: inactive

Exercise: For Cc1ccc(NC(=O)c2cccc(N3C(=O)CCC3=O)c2)nc1 , what call appears in the results of this test?
Solution: inactive

***
Exercise: For S=C1NCN(CCc2ccccc2)CN1Cc1ccccc1 , what call appears in the results of this test?
Solution: inactive

Exercise: For NC(=O)C1(NC(=O)[C@@H]2CC3(CC(c4cccc(NC(=O)[C@@H]5CCC(=O)N5)c4)=NO3)CN2C(=O)c2ccccc2)CC1 (stereo partly specified) , what call appears in the results of this test?
Solution: inactive

Exercise: For COc1ccc(NC(=O)CSc2ccc([N+](=O)[O-])cc2)cc1S(=O)(=O)N1CCOCC1 , what call appears in the results of this test?
Solution: inactive

Exercise: For Cc1ccc(C#N)c(SCC(=O)Nc2nccs2)n1 , what call appears in the results of this test?
Solution: inactive

Exercise: For Cc1nc(SCC(=O)NC(=O)NC(C)(C)C)nc(C)c1C , what call appears in the results of this test?
Solution: inactive
